# Tested on: ACHN renal
# protocolNotes: NCI tumour cell line growth inhibition, 48 h
Measured TGI, listed per entry.

molecule	reportedMetric	endpointValue
CC(C)CCN=C(N)c1ccc(N2CCN(c3ccc(C(N)=NCCC(C)C)cc3)CC2)cc1	TGI	> 100 µM
COc1ccc(Cn2cc3c(c2-c2ccc(OC)cc2)CCc2cnoc2-3)cc1	TGI	> 100 µM
Cc1cc(N(CCNc2ccnc3cc(Cl)ccc23)Cc2ccco2)nc(Cl)n1	TGI	3.02 µM
CC1OC2(CC(OCc3ccccc3)C1OCc1ccccc1)OCCO2 (stereo not given)	TGI	> 100 µM
COc1cc(Nc2ccnc(NCCCNc3ccnc4cc(Cl)ccc34)n2)cc(OC)c1	TGI	3.53 µM
NC1CC2NC3CCCCC3NC2CC1N (stereo not given)	TGI	> 100 µM
CCN1CCN(c2nc3ccc([N+](=O)[O-])cc3nc2C(=O)c2ccccc2)CC1	TGI	29.3 µM
COc1ccc(/C=C2\N=C(c3ccccc3)N(N=C3NC(=O)CC(=O)N3)C2=O)cc1	TGI	> 100 µM
CCC1CN2CCc3c([nH]c4ccccc34)C2C[C@@H]1CC(=O)N(C)C (stereo not given in full)	TGI	> 100 µM

Reported TGI for CC(C)C1=CCC2C(=C1)CCC1C(C)(C(=O)O)CCCC21C (stereo not given) (tested in a mixture with another compound) : what is it?
> 100 µM
